# TESTED SYSTEM: T1, murine pro-myostatin (mouse, UniProt O08689 25-376)
# T1 construct: Recombinant in the BLI and reporter assays; endogenous mouse protein in the immunoprecipitation and immunofluorescence experiments; also called proGDF8 (mouse); Murine ProGDF8
# ASSAY TEXT: ForteBio BLI
List of log10 Kd values.
METRIC: log10 Kd (log10 of the value in nM)

>  <BINDER>
Ab7 (antibody, V domains shown) VH: QVQLQQSGAEVKKPGASVKVSCKASGYTFTSYYMHWVRQAPGQGLEWMGIINPSGGSTSYAQKFQGRVTMTRDTSTSTVYMELSSLRSEDTAVYYCARESLIRFLEDPQQGGMDVWGQGTTVTVSS VL: QSALTQPASVSGSPGQSLTISCTGTSSDIGGYNYVSWYQQHPGKAPKLIIYDVTDRPSGVSGRFSGSKSGNTASLTISGLQTEDEAEYFCNSWTRSNNYIFGGGTKLTVLG

>  <log10 Kd>
1.52

$$$$
>  <BINDER>
Ab8 (antibody, V domains shown) VH: QIQLVQSGAEVKKPGASVKVSCKASGYTFTSYGISWVRQAPGQGLEWMGWISAYNGNTNYAQKLQGRVTMTTDTSTSTAYMELSSLRSEDTAVYYCARVGFYDYVWGSYPYDAFDIWGQGTMVTVSS VL: EIVMTQSPGTLSLSPGERATLSCRASQSVSSNYLAWYQQKPGQAPRLLIYDASNRATGIPARFSGSGSGTDFTLTISSLEPEDFALYYCQQYGTSPLTFGGGTKLEIKR

>  <log10 Kd>
0.15

$$$$
>  <BINDER>
Ab11 (antibody, V domains shown, Fully human antibody) VH: QLQLQQSGGGLVKPGGSLRLSCAASGFTFSSYSMNWVRQAPGKGLEWVSSISSSSSYIYYADSVKGRFTISRDNAKNSLYLQMNSLRAEDTAVYYCVRDRHSLGDFDYWGQGTLVTVSS VL: SSELTQPSVSVSPGQTATITCSGDKLGDKYASWYQQKPGQSPVLVIYQDTKRPSGIPARFSGSNSGNTATLTISGTQAMDEAAYYCQAWDSTTVVFGGGTKLTVLG

>  <log10 Kd>
0.20

$$$$
>  <BINDER>
Ab13 (antibody, V domains shown, Fully human antibody) VH: EVQLVQSGGGLVQPGRSLRLSCAASGFTFDDYAMHWVRQAPGKGLEWVSGISWNSGSIGYADSVKGRFTISRDNAKNSLYLQMNSLRAEDTALYYCAKDTSNGGYSSSSFDYWGQGTLVTVSS VL: QSALTQPASVSGSPGQSITISCTGTSSDVGGYNYVSWYQQHPGTAPKLMIYDVSYRPSGVSNRFSGSKSGNTASLTISGLQAEDEADYYCSSYTSSSTLVFGTGTKVTVLG

>  <log10 Kd>
0.63

$$$$
>  <BINDER>
Ab15 (antibody, V domains shown, Fully human antibody) VH: EVQLVQSGGGLVQPGRSLRLSCAASGFTFDDYAMHWVRQAPGKGLEWVSGISWNSGSIGYADSVKGRFTISRDNSKNTLYLQMNSLRAEDTAVYYCAKVDGLEYSSGHNFDYWGQGTLVTVSS VL: QSALTQPPSVSGSPGQSVTISCTGSSSDVGYYDHVSWYQHHPGRAPKVIIYDVTKRPSGVPDRFSGSKSGNTASLTISGLQAEDEADYYCSSYAGSYTWVFGGGTELTVLG

>  <log10 Kd>
0.67

$$$$
>  <BINDER>
Ab10 (antibody, V domains shown, also called anti-pro/latent GDF8 antibody, Ab10) VH: EVQLVQSGGGVVQSGRSLRLSCVASGFSFSNYGMHWVRQAPGKGLEWLAFIWYDGSNKWYADSVKGRFTISRDNSKNALYLQMNSLRAEDTAVYYCARDRYSSSWGGGFDYWGQGTVLTVSS VL: NFMLTQPHSVSESPGRTVTIPCSGRGGSIASDSVQWYQQRPGSAPTTIIYEDNQRPSGVPDRFSGSVDSSSNSASLTISGLRTEDEADYYCQSYDASSLWVFGGKTKLTVLG

>  <log10 Kd>
0.57

$$$$

Provenance of the data: patent US20260242455A1
